- systemTested: T1, biotinylated human VWF cysteine knot (CK) domain construct (human, UniProt P04275 2724-2813, biotinylated in vitro (BirA) on the biotinylation tag; one N-glycan)
- T1 construct: Expressed in HEK293 EBNA cells; disulfide-linked homodimer; also called human VWF CK; human VWF CK domain; not shown: in vitro biotinylation tag, HRV-3C site and 3 VWF residues before the CK domain
- experimentalProtocol: SPR, scFv captured via anti-SV5, CK domain injected, pH 5.5, apparent Kd;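 note: scFvs from crude yeast supernatants captured on chip-bound anti-SV5 antibody, Kd computed as koff divided by kon, dimeric CK construct likely makes affinity appear higher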
pKd: −log10 of the molar value.
endpointLabel: pKd

binder="1081_Lib8_scFv (scFv, VH-linker-VL; not shown: C-terminal 3xFLAG and SV5 tags) scFv: EVQLVESGGGLVQPGRSLRLSCAASGFNFHNYDMHWVRQAPGKGLEWVSAISGGAVSTDYADSVEGRFTISRDNAKNSLYLQMNSLRAEDTAVYYCARSSWYGGQIDFWGQGTLVTVSSSGGSTITSYNVYYTKLSSSGTDIQMTQSPSSLSASVGDRVTITCRASESVSSWLAWYQQKPGKAPKLLIYGASTLEGGVPSRFSGSGSGTDFTLTISSLQPEDVATYYCQQAYRTPVTFGGGTKVEIK" measvalue=9.56
binder="4035_Lib1_scFv (scFv, VH-linker-VL; not shown: C-terminal 3xFLAG and SV5 tags) scFv: QVQLVQSGAEVKKPGASVKVSCKVSGYAFPSYGIHWVRQAPGKGLEWMGGISAFTGDTIYAQKFQGRVTMTEDTSTDTAYMELSSLKSEDTAVYYCASGPTNVLTGLMESAEYFQHWGQGTLVTVSSSGGSTITSYNVYYTKLSSSGTDIQMTQSPSSVSASVGDRVTITCRASQGISRDLAWYQQKPGKAPKLLIYGASGRATGVPSRFSGSGSGTDFTLTISSLQPEDFANYYCQQSYITPTTFGGGTKVEIK" measvalue=8.85
binder="Lib1_P1_A6_scFv (scFv, VH-linker-VL; not shown: C-terminal 3xFLAG and SV5 tags) scFv: QVQLVQSGAEVKKPGASVKVSCKVSGSTFSNYAIHWVRQAPGKGLEWMGGIVPLSGTAIYAQKFQGRVTMTEDTSTDTAYMELSSLKSEDTAVYYCARDQGESSGWYAIYYGMDVWGQGTTVTVSSSGGSTITSYNVYYTKLSSSGTDIQMTQSPSSVSASVGDRVTITCRASQGIGTWLAWYQQKPGKAPKLLIYGSSSRASGVPSRFSGSGSGTDFTLTISSLQPEDFANYYCQQSYGKPTFGGGTKVEIK" measvalue=10.35
